# System: RPMI-8226 leukemia
# Assay Protocol: NCI tumour cell line growth inhibition, 48 h
Reported Property: TGI

Example entries and their recorded answers appear below.
# Compound, Reported Property, Reported Result
rows = [
    ("Cc1cc(N=Nc2c(O)ccc3ccccc23)ccc1N=Nc1cccc([N+](C)(C)C)c1", "TGI", "> 46.5 µM"),
    ("COc1cc(/C=C2/SC(c3ccccc3)N(c3ccccc3)C2=O)cc(OC)c1OC (configuration not stated)", "TGI", "66.6 µM"),
    ("COc1ccc(/C=C2\\CCC(C)/C(=C\\c3ccc(OC)c(OC)c3)C2=O)cc1OC (configuration not stated)", "TGI", "8.01 µM"),
]

Please state, for each entry, its recorded TGI.
1. O=C(NNC(c1ccccc1)C(F)(F)F)c1ccncc1 (configuration not stated)
2. C/C=C\C(CC(=O)NCCC1CN(S(=O)(=O)C(F)(F)F)c2ccccc21)CC(=O)OC (configuration not stated)
3. Cc1nc(-c2ccccc2)cc2c1c(=O)oc1ccccc12
4. CC(C)OP(=O)(OC(C)C)/C(C#N)=C/c1ccco1
5. O=C(O)Cc1ccc(Oc2nc3ccccc3nc2C(=O)O)cc1
6. O=C(O)CNc1ccc(C(=O)O)cc1

OUT:
1: > 100 µM; 2: > 100 µM; 3: > 100 µM; 4: > 100 µM; 5: > 100 µM; 6: > 100 µM

Give me TGI for each of these compounds, listed below.
1. CCNc1nnc(-c2nsc3ccccc23)s1
2. CC1(C)OB(O)OC1(C)C
3. CCCCc1ccc(Nc2nc(=S)c3[nH]cnc3[nH]2)cc1

OUT:
1: > 100 µM; 2: > 100 µM; 3: 90.4 µM

====

# Tested on: HCC-2998 colon
# Assay Protocol: NCI tumour cell line growth inhibition, 48 h
Task for the reader: assign each of the following compounds its reported log10 TGI.
Values reflect log10 of reported TGI (µM).

Sample records with log10 TGI:
# Compound, Reported Result
rows = [
    ("OC(COc1ccc(F)cc1)Cn1cnc2c(Cl)ncnc21 (configuration not stated)", 1.63),
    ("C=C1C(=O)C[C@@]23CCC[C@@]12CC(OCOC)C3 (some centres not stated)", 1.09),
    ("Cc1ccc2c(c1)C(=O)N1CCC[C@H]1C=N2", 1.66),
    ("N#CC(C#N)N=Nc1ccc(Br)cc1", 1.52),
]

IN: Please give the measured log10 TGI for this compound: CCCCCCCCCCCCCCCC[N+](C)(CCO)Cc1cnc[nH]1 (configuration not stated)
OUT: 0.44

====

Consider the following molecules; for each one, report its TGI.
# Test system: TK-10 renal
# Assay Protocol: NCI tumour cell line growth inhibition, 48 h

Use the examples below as a reference point.
# Molecule, Reported Property, Reported Result
records = [
    ("COc1cc(O)c2c(c1)C(=O)C=C(Cl)C2=O", "TGI", "> 100 µM"),
    ("COc1ccc(/C=C2\\CCC(C)/C(=C\\c3ccc(OC)c(OC)c3)C2=O)cc1OC (stereo not drawn)", "TGI", "7.41 µM"),
]

We next turn to a different molecule, shown below.
IN: I am curious: what TGI value has been reported for "O=C(/C=N/O)Nc1cc(Cl)c(Cl)cc1Cl" ?
OUT: > 100 µM

====

# Test system: HCT-116 colon
# Assay Protocol: NCI tumour cell line growth inhibition, 48 h
Reported Property: TGI

# Compound, TGI
records = [
    ("Cc1cc(S(=O)(=O)/N=C(\\[N-]S(=O)(=O)c2ccc(Cl)cc2)[n+]2ccc(N(C)C)cc2)c(S)cc1Cl", "44.7 µM"),
    ("C/C=C\\C(CC(=O)NCCC1CN(S(=O)(=O)C(F)(F)F)c2ccccc21)CC(=O)OC (stereo not given)", "> 100 µM"),
    ("Cc1nc2c(nc1C)-c1c(c3c(n1C)C(=O)CCC3)C(=O)C2=O", "1.44 µM"),
]

Dear reader, for each entry below, please note its TGI.
1. C/C1=C/C(C)CC(C)OC(=O)C(C)NC(=O)C(Cc2ccc(O)c(I)c2)N(C)C(=O)C(C)NC(=O)C(C)C1 (stereo not given)
2. C=C(C)CC1(O)C(=O)C(OCC)=C1OCC (stereo not given)
3. O=C(Cc1nc2ccccc2s1)C(=O)Nc1cccc(Cl)c1
4. Nc1nc2cc3ccc(C4CC(O)C(CO)O4)cc3cc2c(=O)[nH]1 (stereo not given)

OUT:
["> 48.7 µM", "> 100 µM", "> 100 µM", "> 100 µM"]
